- Test system: MDA-MB-231 (human breast adenocarcinoma) cells
- method-summary: WST-1 cell viability assay, MDA-MB-231
- Assay type: cell-based
- condition-set: Homo sapiens, MDA-MB-231; WST-1, 72 h exposure, ± SD, n = 6
- Procedure: The synthesized compounds were tested using three cancer cell lines—human amelanotic melanoma (C-32), human breast adenocarcinoma (MDA-MB-231), and human lung adenocarcinoma (A549)—and, for comparison, normal human dermal fibroblasts (HFF-1). […] WST-1 test: The WST-1 test (Roche Diagnostics, Mannheim, Germany) allows one to determine the relative number of cells in cultures. Absorbance is directly proportional to the number of cells and their metabolic activity. […]
metric: IC50 (µM)

Completed entries (count: 2):
Hello, I am looking for reported IC50 with MDA-MB-231 (human breast adenocarcinoma) cells for C#CCOc1ccc(NS(=O)(=O)c2ccc(O)c3ncccc23)cc1 . Could you help?
45.3

Further, for COc1ccc(S(=O)(=O)NCc2cn(CSc3ccccc3)nn2)c2cccnc12 ?
72.2

[I] C#CC(C)(C)NS(=O)(=O)c1ccc(O)c2ncccc12
[II] C#CCN(C)S(=O)(=O)c1ccc(O)c2ncccc12
Hey, which is lower on measured IC50, I or II ? // caller expects the label of the chosen entry
II
(II: 2.2 µM, I: 55.8 µM)

---

- Test system: MDA-MB-231 (human breast adenocarcinoma) cells
- method-summary: WST-1 cell viability assay, MDA-MB-231
- Format: cell-based
- condition-set: Homo sapiens, MDA-MB-231; WST-1, 72 h exposure, ± SD, n = 6
Entries and their IC50 values follow.

IC50 lookup needed for COc1cccc2c1C(=O)c1c(O)c3c(c(O)c1C2=O)C[C@@](O)(C(=O)CO)C[C@@H]3O[C@H]1C[C@H](N)[C@H](O)[C@H](C)O1 [DOX, doxorubicin, reference compound] , thanks.
0.6 µM

New cases:
# input compound: C#CCOc1cccc(NS(=O)(=O)c2ccc(OC)c3ncccc23)c1 ; wanted: its IC50
> 100 µM

And the next one, COc1ccc(S(=O)(=O)NCc2cn(Cc3ccccc3)nn2)c2cccnc12 ?
> 100 µM

Field entry: C#CCOc1cccc(NS(=O)(=O)c2ccc(O)c3ncccc23)c1
15.2 µM

Check C#CCNS(=O)(=O)c1ccc(O)c2ncccc12 too.
23.3 µM

Moving on to the next compound: COc1ccc(S(=O)(=O)NC(C)(C)c2cn(Cc3ccccc3)nn2)c2cccnc12
> 100 µM

Repeat for the following compound: C#CC(C)(C)NS(=O)(=O)c1ccc(OC)c2ncccc12
> 100 µM

For C#CCOc1ccccc1NS(=O)(=O)c1ccc(O)c2ncccc12 then?
14.7 µM

Can you check C#CCN(C)S(=O)(=O)c1ccc(OC)c2ncccc12 next?
> 100 µM

Now try COc1ccc(S(=O)(=O)Nc2ccc(OCc3cn(Cc4ccccc4)nn3)cc2)c2cccnc12 .
> 100 µM

Consider next the compound C#CCNS(=O)(=O)c1ccc(OC)c2ncccc12 in the same way.
> 100 µM

---

- System: methicillin-resistant S. aureus SA 630
- method-summary: MBC, agar aliquot subculture method, MRSA2
- Assay type: cell-based
- condition-set: Staphylococcus aureus; 99.9% decrease in CFU, 24 h, 37 °C
metric: MBC (µM)
Please respond with the number in µM and leave the unit unwritten.

Solved cases below.
For the compound shown here, C#CCOc1cccc(NS(=O)(=O)c2ccc(O)c3ncccc23)c1 , give the reported MBC.
90.4

Another compound to check: C#CCOc1ccccc1NS(=O)(=O)c1ccc(O)c2ncccc12
90.4

Now look at this entry.
May I ask what MBC has been recorded for C#CCOc1ccc(NS(=O)(=O)c2ccc(O)c3ncccc23)cc1 ?
90.4

---

- System: Enterococcus faecalis ATCC 29212
- method-summary: MBC, agar aliquot subculture method, EF
- Format: cell-based
- condition-set: ATCC29212, 99.9% decrease in CFU, 24 h, 37 °C
metric: MBC

For the molecule shown here, C#CCN(C)S(=O)(=O)c1ccc(O)c2ncccc12 , give the reported MBC.
> 464 µM

Would you kindly repeat that for C#CCNS(=O)(=O)c1ccc(O)c2ncccc12 ?
> 977 µM

# ---- query molecule ----
Look up MBC for this molecule: C#CC(C)(C)NS(=O)(=O)c1ccc(O)c2ncccc12
> 883 µM

All values here come from paper PMC11396667.
